Reference for the values: PubChem BioAssay AID1845200

# Test system: ASPS-1 complex tumor spheroids, viability
# assay procedure: Anticancer human tumor ASPS-1 cell line growth inhibition;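 also: spheroids exposed to agents for 7 days after 3 days of growth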
# condition label: second compound 0.03 µM; first compound 0.1 µM; hits give low values
Lab note - cut at 90% for viability, T/C: fulfilled if strictly below, not fulfilled if not.

Study these solved cases before continuing.
• CC1COCCN1c1cc(-c2ccnn2C)c2ccnc(-c3ccn[nH]3)c2n1 (stereo unspecified) + CC[C@@]1(O)C(=O)OCc2c1cc1n(c2=O)Cc2cc3c(CN(C)C)c(O)ccc3nc2-1 = fulfilled
• CC(C)n1c(=O)n(C)c2cnc3cc(F)c(-c4ccc(OCCCN5CCCCC5)nc4)cc3c21 + CC[C@@]1(O)C(=O)OCc2c1cc1n(c2=O)Cc2cc3c(CN(C)C)c(O)ccc3nc2-1 = fulfilled
• [2H]c1nc(C)nc([2H])c1-c1cc(NC[C@@H](C)c2cccc3c(C(=O)NC)ccnc23)ncn1 + CC[C@@]1(O)C(=O)OCc2c1cc1n(c2=O)Cc2cc3c(CN(C)C)c(O)ccc3nc2-1 = not fulfilled

Kindly review the next compound as well.
## Task Decide: viability, T/C of Cc1cc(C)c(CNC(=O)c2cc(-c3ccc(CN4CCOCC4)cc3)cc3c2cnn3C2CCCC2)c(=O)[nH]1 + CC[C@@]1(O)C(=O)OCc2c1cc1n(c2=O)Cc2cc3c(CN(C)C)c(O)ccc3nc2-1 strictly below 90%?
## Result not fulfilled
